What self-cleavage was measured for each of the following?
B1: Twister Ribozyme (parent)
chain: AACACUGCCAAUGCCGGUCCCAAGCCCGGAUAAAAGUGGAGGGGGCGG

Variants of: B1
Assay: self-cleavage, relative activity (ratio to wild type); higher = more cleavage; co-transcriptional
Answer with a bare number; do not write a unit.

Input: If you can, please state the reported self-cleavage value of C5G G38A .
Output: 0.298

Input: Then G28U G39C ?
Output: 0.15

Input: Then C26G A30U ?
Output: 0.295

Input: Then G16C G43A ?
Output: 0.148

Input: Then G16A A23G ?
Output: 0.161

Input: Then C25A C46A ?
Output: 0.07

Input: Then C5G G45C ?
Output: 0.222

Input: Then G43U C46A ?
Output: 0.271

Input: Then U18C U37G ?
Output: 0.155

Input: Then C19U C21U ?
Output: 0.0767

Input: Then A22G G36U ?
Output: 0.105

Input: Then U37C G41A ?
Output: 0.134

Input: Then A11G G45A ?
Output: 0.811

Input: Then G13C C46U ?
Output: 0.485

Input: Then C21U C25G ?
Output: 0.0992

Input: Then G16U A22C ?
Output: 0.925

Input: Then C8G G39C ?
Output: 0.135

Input: Then A1G A30C ?
Output: 0.198

Input: Then A1G A2G ?
Output: 1.19

Input: Then C3U C21U ?
Output: 0.0611

Input: Then C25U U31G ?
Output: 0.627

Input: Then A10G G44C ?
Output: 0.965

Input: Then C9U G28C ?
Output: 0.549

Input: Then A10C A33C ?
Output: 1.14

Input: Then A4C G48C ?
Output: 0.31

Input: Then G7U A11U ?
Output: 0.0842

Input: Then A2G C21A ?
Output: 0.0688

Input: Then U18G C27A ?
Output: 0.0641

Input: Then C21U A35G ?
Output: 0.108

Input: Then A22C C46G ?
Output: 0.869

Input: Then C20G C27U ?
Output: 0.0791

Input: Then A33U U37G ?
Output: 0.591

Input: Then G42C C46A ?
Output: 0.289

Input: Then C25U G43A ?
Output: 0.151

Input: Then G36U G45A ?
Output: 0.4

Input: Then C25U A40G ?
Output: 0.121

Input: Then A10U A23G ?
Output: 0.461

Input: Then U12A A35C ?
Output: 1.09

Input: Then G39C G41U ?
Output: 0.122

Input: Then A40G G43C ?
Output: 0.135

Input: Then G16A C20G ?
Output: 0.158

Input: Then U12A G16U ?
Output: 1.09

Input: Then C8A C15G ?
Output: 0.0688

Input: Then G42A G47U ?
Output: 0.325

Input: Then C26G G42U ?
Output: 0.13

Input: Then G39U G44A ?
Output: 0.15
